# PROTOCOL_TEXT: Antiproliferative activity against mouse NIH/3T3 cells assessed as inhibition of cell growth at 10 to 60 uM after 4 days
# Format: functional, cell-based
# MEASUREMENT_PARAMETERS: NIH3T3, 96 h
QUANTITY_MEASURED: EC50 (µM)

> print(dat)
                  smiles.data  recorded.number
1  O=c1ccc2nccc3c4ccccc4n1c23               15

Data provenance is ChEMBL document CHEMBL3352281.
